The values you see were collected from patent US9024041B2.

Test system: Differentiated U937 cells
Experiment: MTT assay: cell viability on exposure to test compounds
Type: cell-based, human
Conditions: percentage loss of cell viability vs vehicle; 1 μg/mL, 24 h, 10% FCS
# if measured MTT Assay (Viability) 24 h d-U937 < -20%: rule met  # else: rule not met

## Task Does this compound meet the criterion MTT Assay (Viability) 24 h d-U937 < -20%? COCC(=O)Nc1cc(Oc2ccc(NC(=O)Nc3cc(C(C)(C)C)nn3-c3cc(C)cs3)c3ccccc23)ccn1
## Result rule not met

## Task Does this compound meet the criterion MTT Assay (Viability) 24 h d-U937 < -20%? COCC(=O)Nc1cc(Oc2ccc(NC(=O)Nc3cc(C(C)(C)C)nn3-c3ccc(Cl)c(Cl)c3)c3ccccc23)ccn1
## Result rule met

## Task Does this compound meet the criterion MTT Assay (Viability) 24 h d-U937 < -20%? COCC(=O)Nc1cc(Oc2ccc(NC(=O)Nc3cc(C45CC6CC(CC(C6)C4)C5)nn3-c3ccc(C)cc3)c3ccccc23)ccn1
## Result rule met

## Task Does this compound meet the criterion MTT Assay (Viability) 24 h d-U937 < -20%? COCC(=O)Nc1cc(Oc2ccc(NC(=O)Nc3cc(C(C)(C)C)nn3-c3cccc(OC)c3)c3ccccc23)ccn1
## Result rule not met

## Task Does this compound meet the criterion MTT Assay (Viability) 24 h d-U937 < -20%? COCC(=O)Nc1cc(Oc2ccc(NC(=O)Nc3cc(C(C)(C)C)nn3-c3ccc(NS(C)(=O)=O)cc3)c3ccccc23)ccn1
## Result rule not met

## Task Does this compound meet the criterion MTT Assay (Viability) 24 h d-U937 < -20%? CN(C)C(=O)Nc1cc(Oc2ccc(NC(=O)Nc3cc(C(C)(C)C)nn3-c3ccc(S(C)(=O)=O)cc3)c3ccccc23)ccn1
## Result rule met

## Task Does this compound meet the criterion MTT Assay (Viability) 24 h d-U937 < -20%? COCC(=O)Nc1cc(Oc2ccc(NC(=O)Nc3cc(C(C)(C)C)nn3-c3ccc(OC)c(OC)c3)c3ccccc23)ccn1
## Result rule not met

## Task Does this compound meet the criterion MTT Assay (Viability) 24 h d-U937 < -20%? CC(C)(C)c1cc(NC(=O)Nc2ccc(Oc3ccnc(NC(=O)NC4CC4)c3)c3ccccc23)n(-c2ccc(S(C)(=O)=O)cc2)n1
## Result rule met

## Task Does this compound meet the criterion MTT Assay (Viability) 24 h d-U937 < -20%? COCC(=O)Nc1cc(Oc2ccc(NC(=O)Nc3cc(C(C)(C)C)nn3-c3ccc(N)cc3)c3ccccc23)ccn1
## Result rule not met

## Task Does this compound meet the criterion MTT Assay (Viability) 24 h d-U937 < -20%? COCC(=O)Nc1cc(COc2ccc(NC(=O)Nc3cc(C(C)(C)C)nn3-c3ccc(OC)cc3)c(C)c2C)ccn1
## Result rule not met

## Task Does this compound meet the criterion MTT Assay (Viability) 24 h d-U937 < -20%? COc1ccc(-n2nc(C(C)(C)C)cc2NC(=O)Nc2ccc(Oc3ccnc(NC(=O)N4CCCC4)c3)c3ccccc23)cc1
## Result rule met

## Task Does this compound meet the criterion MTT Assay (Viability) 24 h d-U937 < -20%? CNC(=O)Nc1cc(Oc2ccc(NC(=O)Nc3cc(C(C)(C)C)nn3-c3ccc(O)nc3)c(C)c2C)ccn1
## Result rule not met

## Task Does this compound meet the criterion MTT Assay (Viability) 24 h d-U937 < -20%? COCC(=O)Nc1cc(Oc2ccc(NC(=O)Nc3cc(C4(C)CC4)nn3-c3ccc(C)cc3)c3ccccc23)ccn1
## Result rule not met

## Task Does this compound meet the criterion MTT Assay (Viability) 24 h d-U937 < -20%? CN1CCN(C(=O)Nc2cc(Oc3ccc(NC(=O)Nc4cc(C(C)(C)C)nn4-c4ccc(S(C)(=O)=O)cc4)c4ccccc34)ccn2)CC1
## Result rule not met

----------
For each entry below, report its log10(IC50) value.
Biological target: Recombinant, phosphorylated p38 MAPKγ (MAPK12:Invitrogen) (Homo sapiens, UniProt P53778)
Sequence (P53778 1-367): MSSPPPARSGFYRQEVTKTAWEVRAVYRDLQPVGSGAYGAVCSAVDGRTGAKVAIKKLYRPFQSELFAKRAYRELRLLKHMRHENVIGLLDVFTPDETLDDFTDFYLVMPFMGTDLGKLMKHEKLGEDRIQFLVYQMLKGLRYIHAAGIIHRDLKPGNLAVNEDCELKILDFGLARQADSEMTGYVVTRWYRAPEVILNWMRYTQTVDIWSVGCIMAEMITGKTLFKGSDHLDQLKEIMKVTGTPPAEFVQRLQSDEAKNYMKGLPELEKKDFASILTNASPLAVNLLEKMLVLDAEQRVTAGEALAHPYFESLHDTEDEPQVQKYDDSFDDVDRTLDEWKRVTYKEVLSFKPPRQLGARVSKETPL
Assay: p38 MAPKγ enzyme inhibition assay (FRET, Z-LYTE)
Settings: 2 hr pre-incubation, ATP 100 μM; read-out: Enzyme Inhibition IC50 p38γ
Reminder: these figures are log10 of reported IC50, in µM before transformation.

## Task Give reported log10(IC50) for CNC(=O)Nc1cc(Oc2ccc(NC(=O)Nc3cc(C(C)(C)C)nn3-c3ccc(O)nc3)c(C)c2C)ccn1 [Example 62] (Recombinant, phosphorylated p38 MAPKγ (MAPK12:Invitrogen) (Homo sapiens, UniProt P53778))
## Result -1.69

## Task Give reported log10(IC50) for COc1ccc(-n2nc(C(C)(C)C)cc2NC(=O)Nc2ccc(Oc3ccnc(NC(=O)CO)c3)c3ccccc23)cc1 [Example 4] (Recombinant, phosphorylated p38 MAPKγ (MAPK12:Invitrogen) (Homo sapiens, UniProt P53778))
## Result -0.82

## Task Give reported log10(IC50) for COCC(=O)Nc1cc(Oc2ccc(NC(=O)Nc3cc(C4CCOCC4)nn3-c3ccc(C)cc3)c3ccccc23)ccn1 [Example 28] (Recombinant, phosphorylated p38 MAPKγ (MAPK12:Invitrogen) (Homo sapiens, UniProt P53778))
## Result 0.97

## Task Give reported log10(IC50) for CNC(=O)Nc1cc(Oc2ccc(NC(=O)Nc3cc(C(C)(C)C)nn3-c3ccc(S(C)(=O)=O)cc3)c3ccccc23)ccn1 [Example 46] (Recombinant, phosphorylated p38 MAPKγ (MAPK12:Invitrogen) (Homo sapiens, UniProt P53778))
## Result -0.98

## Task Give reported log10(IC50) for CN(C)C(=O)Nc1cc(Oc2ccc(NC(=O)Nc3cc(C(C)(C)C)nn3-c3ccc(S(C)(=O)=O)cc3)c3ccccc23)ccn1 [Example 15] (Recombinant, phosphorylated p38 MAPKγ (MAPK12:Invitrogen) (Homo sapiens, UniProt P53778))
## Result -1.09

## Task Give reported log10(IC50) for COCC(=O)Nc1cc(Oc2ccc(NC(=O)Nc3cc(C(C)(C)C)nn3-c3cccs3)c3ccccc23)ccn1 [Example 56] (Recombinant, phosphorylated p38 MAPKγ (MAPK12:Invitrogen) (Homo sapiens, UniProt P53778))
## Result -1.26

## Task Give reported log10(IC50) for COCC(=O)Nc1cc(Oc2ccc(NC(=O)Nc3cc(C(C)(C)C)nn3-c3cc(C)cs3)c3ccccc23)ccn1 [Example 18] (Recombinant, phosphorylated p38 MAPKγ (MAPK12:Invitrogen) (Homo sapiens, UniProt P53778))
## Result -1.02

----------
For each entry below, report its MTT Assay (Viability) 24 h d-U937 value.
Test system: Differentiated U937 cells
Experiment: MTT assay: cell viability on exposure to test compounds
Assay type: cell-based, human
Details: percentage loss of cell viability vs vehicle; 1 μg/mL, 24 h, 10% FCS

## Task Give reported MTT Assay (Viability) 24 h d-U937 for COCC(=O)Nc1cc(Oc2ccc(NC(=O)Nc3cc(C(C)(C)C)nn3-c3cccs3)c3ccccc23)ccn1 (Differentiated U937 cells)
## Result 43.1%

## Task Give reported MTT Assay (Viability) 24 h d-U937 for COCC(=O)Nc1cc(Oc2ccc(NC(=O)Nc3cc(C(C)(C)C)nn3-c3ccc(Cl)cc3)c3ccccc23)ccn1 (Differentiated U937 cells)
## Result −24.9%

## Task Give reported MTT Assay (Viability) 24 h d-U937 for CC(C)(C)c1cc(NC(=O)Nc2ccc(Oc3ccnc(NC(=O)N4CCOCC4)c3)c3ccccc23)n(-c2ccc(S(C)(=O)=O)cc2)n1 (Differentiated U937 cells)
## Result 11.8%

## Task Give reported MTT Assay (Viability) 24 h d-U937 for CNC(=O)Nc1cc(Oc2ccc(NC(=O)Nc3cc(C(C)(C)C)nn3-c3ccc(OC)cc3)c3ccccc23)ccn1 (Differentiated U937 cells)
## Result −38.2%

## Task Give reported MTT Assay (Viability) 24 h d-U937 for CNS(=O)(=O)Cc1ccc(-n2nc(C(C)(C)C)cc2NC(=O)Nc2ccc(Oc3ccnc(NC(=O)COC)c3)c3ccccc23)cc1 (Differentiated U937 cells)
## Result 50.1%

## Task Give reported MTT Assay (Viability) 24 h d-U937 for COc1ccc(-n2nc(C(C)(C)C)cc2NC(=O)Nc2ccc(Oc3ccnc(NC(=O)N4CCOCC4)c3)c3ccccc23)cn1 (Differentiated U937 cells)
## Result −12.0%

## Task Give reported MTT Assay (Viability) 24 h d-U937 for CNC(=O)Nc1cc(COc2ccc(NC(=O)Nc3cc(C(C)(C)C)nn3-c3ccc(OC)cc3)c(C)c2C)ccn1 (Differentiated U937 cells)
## Result −0.2%
